These data points were gathered from paper PMC13266999.

Test: Kinetic aqueous solubility
Assay type: physicochemical
Conditions: phosphate-buffered saline with 2% DMSO, pH 7.4, aqueous buffer, kinetic from dmso stock
metric: solubility at 2 h (µM)

- compoundSmiles: "O=C(O)c1cn(C2CC2)c2cc(N3CCN(Cc4cccc5ccccc45)CC3)c(F)cc2c1=O"
  metric: "solubility at 2 h"
  censorSymbol: "<"
  observedMeasurement: 5
- compoundSmiles: "C[C@H]1COc2c(N3CC[C@@H](Nc4ncccn4)C3)c(F)cc3c(=O)c(C(=O)O)cn1c23"
  metric: "solubility at 2 h"
  censorSymbol: "="
  observedMeasurement: 183
- compoundSmiles: "Cc1cc(C)nc(N[C@@H]2CCN(c3c(F)cc4c(=O)c(C(=O)O)cn5c4c3OC[C@@H]5C)C2)n1"
  metric: "solubility at 2 h"
  censorSymbol: "="
  observedMeasurement: 156

---

Catalogue of pIC50 values
Target: WT DNA gyrase (Staphylococcus aureus, UniProt P0A0K8+P20831)
Construct: purchased Inspiralis Ltd. (Norwich, UK)
Sequence (P0A0K8 whole entry): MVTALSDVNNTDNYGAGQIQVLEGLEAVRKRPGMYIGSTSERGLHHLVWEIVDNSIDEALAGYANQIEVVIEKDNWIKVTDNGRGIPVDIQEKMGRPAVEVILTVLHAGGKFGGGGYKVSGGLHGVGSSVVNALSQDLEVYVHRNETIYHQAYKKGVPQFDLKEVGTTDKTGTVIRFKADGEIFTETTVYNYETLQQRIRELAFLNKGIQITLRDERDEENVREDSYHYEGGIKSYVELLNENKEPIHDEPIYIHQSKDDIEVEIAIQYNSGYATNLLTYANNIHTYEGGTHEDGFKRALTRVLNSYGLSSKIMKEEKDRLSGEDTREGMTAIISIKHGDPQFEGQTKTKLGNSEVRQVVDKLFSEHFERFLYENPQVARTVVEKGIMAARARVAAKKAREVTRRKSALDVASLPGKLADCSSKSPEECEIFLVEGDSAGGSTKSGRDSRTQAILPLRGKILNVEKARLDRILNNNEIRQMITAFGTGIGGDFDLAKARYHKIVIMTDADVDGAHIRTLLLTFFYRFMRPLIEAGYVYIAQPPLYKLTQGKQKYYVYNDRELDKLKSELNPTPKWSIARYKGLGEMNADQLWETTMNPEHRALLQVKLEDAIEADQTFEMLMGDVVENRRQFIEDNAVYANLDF
Sequence (P20831 whole entry): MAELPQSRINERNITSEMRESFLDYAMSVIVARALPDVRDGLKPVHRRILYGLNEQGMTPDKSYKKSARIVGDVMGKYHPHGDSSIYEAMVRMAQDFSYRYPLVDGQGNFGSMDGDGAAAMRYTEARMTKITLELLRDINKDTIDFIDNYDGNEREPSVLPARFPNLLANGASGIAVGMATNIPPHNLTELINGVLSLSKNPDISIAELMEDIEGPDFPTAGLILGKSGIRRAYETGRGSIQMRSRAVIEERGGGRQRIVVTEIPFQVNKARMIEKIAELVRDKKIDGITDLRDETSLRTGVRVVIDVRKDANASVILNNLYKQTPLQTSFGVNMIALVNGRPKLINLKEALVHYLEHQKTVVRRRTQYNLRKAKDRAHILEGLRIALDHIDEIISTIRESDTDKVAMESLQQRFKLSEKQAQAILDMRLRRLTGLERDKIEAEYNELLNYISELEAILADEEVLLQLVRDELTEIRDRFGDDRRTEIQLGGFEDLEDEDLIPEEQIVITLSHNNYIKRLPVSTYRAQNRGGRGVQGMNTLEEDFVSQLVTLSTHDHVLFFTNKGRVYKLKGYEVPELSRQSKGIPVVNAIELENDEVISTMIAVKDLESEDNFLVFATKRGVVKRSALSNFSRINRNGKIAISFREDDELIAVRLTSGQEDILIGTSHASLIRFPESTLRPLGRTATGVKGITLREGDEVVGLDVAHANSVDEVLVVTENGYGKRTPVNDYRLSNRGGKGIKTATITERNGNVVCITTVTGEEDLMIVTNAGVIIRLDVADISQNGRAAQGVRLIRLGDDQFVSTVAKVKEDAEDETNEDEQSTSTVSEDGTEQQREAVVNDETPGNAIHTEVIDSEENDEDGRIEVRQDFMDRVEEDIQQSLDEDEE
Experiment: DNA gyrase supercoiling inhibition assay
Assay type: biochemical, S. aureus
Protocol: Gyrase inhibition was determined through biochemical assay kits from Inspiralis Ltd. (Norwich, UK), according to manufacturer’s instructions, and as described previously. Briefly, 1U of enzyme was incubated with 0.5 μg of relaxed […] DNA in the presence of compound in 1% DMSO for 30 min at 37 °C. […] The intensity of the supercoiled DNA band was quantified using Syngene software, and the inhibition of the supercoiling of the DNA by the compounds was calculated.
pIC50: −log10 of the molar value.

- compound: "Cc1cc(C)nc(N[C@@H]2CCN(c3c(F)cc4c(=O)c(C(=O)O)cn5c4c3OC[C@@H]5C)C2)n1 [Compound 50]"
  pIC50: 5.26
- compound: "C[C@H]1COc2c(N3CC[C@@H](Nc4ncccn4)C3)c(F)cc3c(=O)c(C(=O)O)cn1c23 [Compound 46]"
  pIC50: 5.10

---

System: S. aureus
Test: Serial passaging, MIC of adapted strains
Format: cell-based
Conditions: Staphylococcus aureus, 1199B adapted to 4 x MIC of Compound 50
metric: MIC (µg/mL)

- compound: "COc1c(N2CC[C@@H](Nc3ncccn3)C2)c(F)cc2c(=O)c(C(=O)O)cn(C3CC3)c12"
  metric: "MIC"
  unitInfo: "µg/mL"
  observedMeasurement: 0.125
- compound: "C[C@H]1COc2c(N3CCN(C)CC3)c(F)cc3c(=O)c(C(=O)O)cn1c23 [Levofloxacin, reference compound]"
  metric: "MIC"
  unitInfo: "µg/mL"
  observedMeasurement: 4
- compound: "C[C@H]1COc2c(N3CC[C@@H](Nc4ncccn4)C3)c(F)cc3c(=O)c(C(=O)O)cn1c23"
  metric: "MIC"
  unitInfo: "µg/mL"
  observedMeasurement: 0.25
- compound: "Cc1cc(C)nc(N[C@@H]2CCN(c3c(F)cc4c(=O)c(C(=O)O)cn5c4c3OC[C@@H]5C)C2)n1"
  metric: "MIC"
  unitInfo: "µg/mL"
  observedMeasurement: 0.25

---

System: major human CYP isoforms other than CYP3A (midazolam substrate)
Experiment: Cytochrome P450 inhibition panel
Conditions: human recombinant CYP enzymes in microsomal preparations
metric: inhibition at 10 µM

- compound: "C[C@H]1COc2c(N3CC[C@@H](Nc4ncccn4)C3)c(F)cc3c(=O)c(C(=O)O)cn1c23 [Compound 46]"
  testedOn: "major human CYP isoforms other than CYP3A (midazolam substrate)"
  metric: "inhibition at 10 µM"
  observedMeasurement: "≤ 13%"
